- Measured Target: Retinoic acid receptor RXR-alpha (Homo sapiens) (UniProt P19793)
- Sequence (P19793 whole entry, looked up): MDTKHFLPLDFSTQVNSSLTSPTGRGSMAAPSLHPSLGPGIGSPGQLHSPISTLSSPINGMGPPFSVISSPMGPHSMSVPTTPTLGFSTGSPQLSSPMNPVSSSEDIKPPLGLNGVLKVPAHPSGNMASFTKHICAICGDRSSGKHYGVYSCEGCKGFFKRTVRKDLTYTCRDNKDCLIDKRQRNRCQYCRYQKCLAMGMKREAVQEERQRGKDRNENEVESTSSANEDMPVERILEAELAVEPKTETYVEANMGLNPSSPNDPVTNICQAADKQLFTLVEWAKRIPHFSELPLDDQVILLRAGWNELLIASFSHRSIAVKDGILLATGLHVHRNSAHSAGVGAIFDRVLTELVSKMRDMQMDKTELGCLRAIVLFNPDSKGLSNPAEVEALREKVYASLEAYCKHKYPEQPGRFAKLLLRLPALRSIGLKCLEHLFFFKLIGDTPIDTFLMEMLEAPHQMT
- Assay Details: ATG_RXRa_TRANS: Attagene TRANS-FACTORIAL HepG2 Assay for human Retinoid X Receptor alpha (RXRa) (AID 2283012)
Records with an inconclusive call do not appear. Calls of active or inactive are those of the source. The calls were made as follows: active = hit-call score of the fitted dose curve at least 0.9, where 1 is the maximum; inconclusive = response in the unintended direction; inactive = score below 0.9.
Your reply should match one of these outcome classes. T = active, F = inactive

Write down the call the test reported for this compound. Item: `N#Cc1ccccc1`
F

For CN(CCOc1ccc(CC2SC(=O)NC2=O)cc1)c1ccccn1 (centres undefined) , what call appears in the results of this test?
F

Can you look up the reported call for `CCn1c2ccccc2c2cc(N)ccc21` for me?
F

Please indicate how the test categorized `Nc1cc([N+](=O)[O-])ccc1O` .
F

Entry `NC(N)=NC(=O)c1nc(Cl)c(N)nc1N` : call = ?
F

Any idea what this test logged for `N#Cc1nc(Cl)c(Cl)c(Cl)c1Cl` ?
F

What was the test verdict on `O=C1CCCCCCCCCCCCCCO1` ?
F

Record request — test call for `COc1ccc(Nc2ccccc2)c(C)c1`
F

Give the logged outcome of this assay for the following compound: `Nc1cccc(S(=O)(=O)c2cccc(N)c2)c1`
F

What classification did `C[C@]12CC[C@H]3[C@@H](CCC4=CC(=O)CC[C@@]43C)[C@@H]1CC[C@@H]2C(=O)CO` end up with in this test?
F

Could you kindly confirm the outcome this assay logged for `Nc1cc(N)cc(C(=O)O)c1` ?
F

Which outcome did this test record for the compound `CCCc1c(OCCCOc2ccc(OCC(=O)O)cc2)ccc(C(C)=O)c1O` ?
F

Could you please tell me the result logged for `C=COCCOCCOCCOC=C` in this assay?
F

For `CC(C)=CCO` , what call appears in the results of this test?
F

Which result was noted for this compound in the test: `Nc1ccc(F)c([N+](=O)[O-])c1`
F

Please state the recorded outcome for this compound: CN1Cc2c(N)cccc2C(c2ccccc2)C1 (centres undefined)
F

Returns: the outcome recorded for `O=C(O)CCCCCCCC(=O)O` in this assay.
F

What was the test verdict on `COc1nc(C)nc(N)n1` ?
F

Would you mind telling me which call this test gave CC(CCO)CCc1ccccc1 (centres undefined) ?
F

Could you check what this test reported for `O=C(O)c1cccc(C(F)(F)F)c1` ?
F

Returns: the outcome recorded for NC(=O)NC1NC(=O)NC1=O (centres undefined) in this assay.
F

GET /call?item= `CCCCc1ccc(N)cc1` returns the recorded outcome of this test.
F

Tell me the assay call for `C#C[C@]1(O)CC[C@H]2[C@@H]3CCC4=Cc5oncc5C[C@]4(C)[C@H]3CC[C@@]21C` please.
T

Call for entry `Cc1c(Cl)c(=O)oc2cc(O)ccc12` :
F

Could you check what this test reported for `C=C(C)C(=O)O[C@H]1C[C@@H]2CC[C@@]1(C)C2(C)C` ?
F

Can you look up the reported call for `C=C[Si](OCC)(OCC)OCC` for me?
F

Just curious, what result did `O=C(O)c1cccc([N+](=O)[O-])c1` get here?
F

Test call, this compound: `O=c1oc(=O)c2cc3c(=O)oc(=O)c3cc12`
F

Which result was noted for this compound in the test: `Clc1ccc(Cl)c(Cl)c1Cl`
F

* * *

- Assay Details: BSK_SAg_PBMCCytotoxicity: PBMC Cytotoxicity Assessment in the BioMAP Diversity Plus: SAg Assay (AID 2283093);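 also: PBMC viability measured as Alamar Blue reduction fluorescence at 546/580 nm; fitted both ways against DMSO so a hit may be loss or gain of signal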
- Experimental Parameters: primary human HUVEC with PBMC
Calls of active or inactive are those of the source. How the source made its calls: active means hit-call score of the fitted dose curve at least 0.9, where 1 is the maximum; inactive means score below 0.9.
Hi! Could you answer with just one of these? active, inactive

Please state the recorded outcome for this compound: `CCC(=O)OCc1ccccc1`
inactive

Kindly provide the recorded test outcome for the following compound: `c1ccc2sc(SN(C3CCCCC3)C3CCCCC3)nc2c1`
active

// outcome(item) with item = `Nc1cc([N+](=O)[O-])ccc1O`
inactive

Hi team, can someone confirm the assay call for `Cc1ccc2n[nH]nc2c1` ?
inactive

For this compound, state the assay outcome: O=C=NC1CCC(CC2CCC(N=C=O)CC2)CC1 (stereo unspecified)
active

Outcome? `CC(=O)O[C@]1(C(C)=O)CC[C@H]2[C@@H]3C[C@H](C)C4=CC(=O)CC[C@]4(C)[C@H]3CC[C@@]21C`
inactive

* * *

- Read-out: Monocyte Chemoattractant Protein-1 (MCP1), CCL2 (gene 6347)
- Assay Details: BSK_3C_MCP1: BioMAP Diversity Plus: 3C Assay for Monocyte Chemoattractant Protein-1 (MCP1) Biomarker Activity (AID 2283017)
- Experimental Parameters: primary human endothelial cells (HUVEC); actives raise or lower the signal
- Protocol: BSK_3C is a cell-based, multiplexed-readout assay that uses umbilical vein endothelium, a human vascular primary cell, with measurements taken at 24 hours after chemical dosing in a 96-well plate.BSK_3C_MCP1 is an assay component measured in the BSK_3C assay. It measures MCP-1 antibody related to regulation of gene expression using ELISA technology.Data from the assay component BSK_3C_MCP1 was analyzed into 1 assay endpoint. […]
Activity calls are given as the source filed them. How the source made its calls: active means hit-call score of the fitted dose curve at least 0.9, where 1 is the maximum; inactive means score below 0.9.
// one of active, inactive, no free text

Identify the outcome logged in this assay for the compound shown: `C=CCOC(=O)CCC1CCCCC1`
inactive

Please let me know the test result on file for CN(CCOc1ccc(CC2SC(=O)NC2=O)cc1)c1ccccn1 (stereo not drawn) .
active

Query: recorded result category for CCCCC(CC)COC(=O)/C=C\C(=O)OCC(CC)CCCC (stereo not drawn) in this test
inactive

Just curious, what result did `CCCCCCCCC=O` get here?
inactive

Assay outcome for CC1CCC(C(C)CS)CC1S (stereo not drawn) : what was it?
active

Can you look up the reported call for `O=P(c1ccccc1)(c1ccccc1)c1ccccc1` for me?
inactive

Tell me the recorded outcome of this test for `N#Cc1ccc(CC(=NNC(=O)Nc2ccc(OC(F)(F)F)cc2)c2cccc(C(F)(F)F)c2)cc1` .
inactive

What classification did `c1ccc2c(c1)c1cccc3ccc4cccc2c4c31` end up with in this test?
inactive

Just curious, what result did `Cc1ccc(O)c(C(C)(C)C)c1` get here?
active

Please indicate how the test categorized `O=C(O)c1cn(-c2ccc(F)cc2)c2cc(N3CCNCC3)c(F)cc2c1=O` .
inactive

Kindly provide the recorded test outcome for the following compound: `Cc1ccc2n[nH]nc2c1`
inactive

Hello, I am checking results. What call was entered for `CC[Si](OC(C)=O)(OC(C)=O)OC(C)=O` ?
inactive

Which outcome did this test record for the compound CCCCC(CC)COCCC#N (stereo not drawn) ?
active

* * *

- Measured Target: Heat shock factor protein 1 (Homo sapiens) (UniProt Q00613)
- Sequence (Q00613 whole entry, looked up): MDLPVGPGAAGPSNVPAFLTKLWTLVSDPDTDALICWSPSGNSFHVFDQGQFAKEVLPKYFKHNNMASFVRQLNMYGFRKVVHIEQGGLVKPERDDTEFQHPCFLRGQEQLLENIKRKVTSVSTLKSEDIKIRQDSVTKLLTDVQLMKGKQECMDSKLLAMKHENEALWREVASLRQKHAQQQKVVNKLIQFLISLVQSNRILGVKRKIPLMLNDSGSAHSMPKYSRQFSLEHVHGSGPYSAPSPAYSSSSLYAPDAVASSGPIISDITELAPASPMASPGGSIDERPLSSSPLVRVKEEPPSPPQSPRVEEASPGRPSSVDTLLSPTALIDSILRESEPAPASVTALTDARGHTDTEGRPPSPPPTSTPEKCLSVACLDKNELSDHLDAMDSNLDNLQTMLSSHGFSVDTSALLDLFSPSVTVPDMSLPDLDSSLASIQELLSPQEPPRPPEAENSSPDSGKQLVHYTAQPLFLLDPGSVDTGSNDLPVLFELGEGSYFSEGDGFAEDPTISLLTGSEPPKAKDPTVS
- Assay Details: ATG_HSE_CIS: Attagene CIS-FACTORIAL HepG2 Assay for human Heat Shock Transcription Factor 1 (HSE) (AID 2282953)
- Experimental Parameters: HepG2 HSE cis-reporter, Attagene RNA transcription; actives raise or lower the signal
Activity calls are given as the source filed them. The calls were made as follows: active = hit-call score of the fitted dose curve at least 0.9, where 1 is the maximum; inactive = score below 0.9.
Give one outcome, nothing more. List: active, inactive

Dear colleague, could you share the recorded outcome for `O=C(O)CN(CCN(CC(=O)O)CC(=O)O)CCN(CC(=O)O)CC(=O)O` when you have a moment?
inactive

Any idea what this test logged for `C=CC(=O)NCOCC(C)C` ?
inactive

Please share the test call associated with CCCCCCCCCCCCCCCCCC(=O)OCC(CC)CCCC (configuration not stated) .
inactive

Any idea what this test logged for `O=C(Cl)c1cccc(C(=O)Cl)c1` ?
inactive

Returns: the outcome recorded for `CC(C)(C)C(=O)c1ccccc1` in this assay.
inactive

# outcome recorded in this test, key = `Clc1nc(C(Cl)(Cl)Cl)c(Cl)c(Cl)c1Cl`
active

// param item: `CCn1c2ccccc2c2cc(N)ccc21` ; yields the recorded call
inactive

Name the outcome recorded for `O=C(O)c1ccc([N+](=O)[O-])cc1` in the assay.
inactive

How was `C[C@]12CC[C@H]3[C@@H](CCC4=CC(=O)CC[C@@]43C)[C@@H]1CC[C@@H]2C(=O)CO` classified in this test?
active

What did the test return for `CCCC(=O)C(C)=O` ?
inactive

# fetch the recorded call for `Clc1cccc(Cl)n1` here
inactive

Status in this test for `CCCCNC(=O)NS(=O)(=O)c1ccc(C)cc1` ?
inactive

Entry `CC(C)(Oc1ccc(CCNC(=O)c2ccc(Cl)cc2)cc1)C(=O)O` : call = ?
inactive

Which outcome was assigned to `COC(=O)OC` in this test?
inactive

Test call for this compound, please: `NCCOCCO`
inactive

# lookup: test call for `NCCCCCCN`
inactive

For this compound, state the assay outcome: COC(C(=O)O)c1ccccc1 (configuration not stated)
inactive

For `Clc1sc(Cl)c(Cl)c1Cl` , which call appears in the assay record?
inactive

Just curious, what result did `NC(N)=NC(=O)c1nc(Cl)c(N)nc1N` get here?
inactive

Lab log entry: `O=c1cc(-c2ccccc2)oc2cc(O)cc(O)c12` — outcome as called in the assay?
inactive

State the result this test recorded for CC(O)C(C)O (configuration not stated) .
inactive

Test call, this compound: `CC(C)=CCC/C(C)=C/COC=O`
inactive

Per the assay record, what outcome was assigned to `CC(C)=CCO` ?
inactive

Please let me know the test result on file for `CC(C)(COC(=O)c1ccccc1)COC(=O)c1ccccc1` .
inactive

State the result this test recorded for OC1C(O)C(O)C(O)C(O)C1O (configuration not stated) .
inactive

Dear colleague, could you share the recorded outcome for `CCCCCCCCCCCCCCCC(=O)O` when you have a moment?
inactive

What is the recorded call for this compound in the test? CCCCCC(CO)CCC (configuration not stated)
inactive

Could you kindly confirm the outcome this assay logged for `Nc1cc(N)cc(C(=O)O)c1` ?
inactive

Dear all, I need the recorded test outcome for `CCCCCCCCCCN` , thank you.
inactive

Please indicate how the test categorized `C/C=C(\C)C(=O)OCc1ccccc1` .
inactive

// outcome(item) with item = `O=S(=O)(O)c1cccc2c(S(=O)(=O)O)cccc12`
inactive

Name the outcome recorded for `C=C[C@@H](C)CCC=C(C)C` in the assay.
inactive

Please indicate how the test categorized C=CC(C)(CCC=C(C)C)OC=O (configuration not stated) .
inactive

Which outcome did this test record for the compound CC(CC(C)(C)C)CC(C)(C)CC(C)(C)C (configuration not stated) ?
inactive

# outcome recorded in this test, key = `CC(=O)OCCOC(C)=O`
inactive

Look up the recorded call for `Cc1ccc2sc3cccc(C)c3c2c1` in this test.
inactive

For C=CC(=O)OCC(O)COc1ccccc1 (configuration not stated) , what call appears in the results of this test?
active

I would be grateful if you could indicate the recorded call for `COc1cccc(OC)c1` .
inactive

Outcome logged for `Nc1cc([N+](=O)[O-])ccc1Cl` in this assay:
inactive

I would be grateful if you could indicate the recorded call for BrC1CCC(Br)C(Br)CCC(Br)C(Br)CCC1Br (configuration not stated) .
inactive

For CC1CCC(C(C)(C)O)CC1 (configuration not stated) , what call appears in the results of this test?
inactive

Please indicate how the test categorized CC(CCO)CCc1ccccc1 (configuration not stated) .
inactive

What outcome does the record of this test show for `COc1ccc(Cl)cc1C` ?
inactive

Can you look up the reported call for `O=[N+]([O-])c1cc(C(F)(F)F)ccc1Cl` for me?
inactive

Which outcome was entered for the compound `CN(C)CCOCCN(C)C` in this test?
inactive

Please let me know the test result on file for CCC(=O)OCCC(C)CCC=C(C)C (configuration not stated) .
inactive

Kindly provide the recorded test outcome for the following compound: `OCCCCCO`
inactive

How was `O=C[C@@H](O)[C@H](O)[C@H](O)CO` classified in this test?
inactive

Can you look up the reported call for `c1ccc2c(c1)c1cccc3ccc4cccc2c4c31` for me?
inactive

Query: recorded result category for c1cc(C(c2ccc(OCC3CO3)cc2)c2ccc(OCC3CO3)cc2)ccc1OCC1CO1 (configuration not stated) in this test
active

Please let me know the test result on file for `O=Cc1ccc(Cl)c([N+](=O)[O-])c1` .
active

Kindly provide the recorded test outcome for the following compound: `CCN(CC)CCOC(=O)c1ccc(N)cc1`
inactive

Record request — test call for CCC(=O)/C=C/C1C(C)=CCCC1(C)C (configuration not stated)
inactive

Short answer needed: outcome of this test for `Nc1nc2ccc([N+](=O)[O-])cc2s1` ?
inactive

Hey, what did the test say about `CC(C)(N)CO` ?
inactive

Hello, I am checking results. What call was entered for `CNCCO` ?
inactive

Would you mind telling me which call this test gave `O=C(O)CCCCCCCC(=O)O` ?
inactive

Hi, sorry to bother you, what did the test record for CN1Cc2c(N)cccc2C(c2ccccc2)C1 (configuration not stated) ?
inactive

Hello, I am checking results. What call was entered for `CCCCCC(=O)OCCc1ccccc1` ?
inactive

Please state the recorded outcome for this compound: `CC(=O)O[C@H](CC(=O)[O-])C[N+](C)(C)C`
inactive

// return assay outcome for `Sc1nc(S)nc(S)n1`
inactive

Any idea what this test logged for `CC(=O)C=CC1=C(C)CCCC1(C)C` ?
inactive

The values you see were collected from PubChem BioAssay (EPA / NIEHS).
